ASSAY: NCI Yeast Anticancer Drug Screen. Data for the sgs1 mgt1 strain (AID 161);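 also: 0% = growth of cultures given vehicle only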
EXPERIMENTAL SETUP: S. cerevisiae sgs1 mgt1 strain, at 50.0 µM (retest, dose inferred, filed as 5.0), hits give high values
This is part of a sample that, as a whole, favours compounds with a hit. Of some 79,000 tested, about 15% had one in any assay.
The reader will find reported growth inhibition values listed item by item below.
The figure you give is taken to be in %; do not add the unit.

CN(C)/N=C\C1CC=CCC1 (centres undefined): -61
Cc1cccc(Cc2ccc(Cl)cc2)c1O: 99
c1ccc2c(c1)CCCc1cc3ccccc3nc1-2: 96

## Input Quick one: growth inhibition of `CCc1cc(CC)c(-c2ccco2)c(COC(=O)NC)c1` ?
## Output 78

## Input Same question, `O=S1(=O)C(Br)=Cc2ccccc21` this time
## Output 99

## Input Same question, `C\C=C/C=C/C=C/C(=O)O` this time
## Output 7

## Input Same question, `O=C(Cl)c1ccc(N=Nc2ccccc2)cc1` this time
## Output 14

## Input Same question, `O=C(Nc1cccc(Cl)c1)OCCOC(=O)Nc1cccc(Cl)c1` this time
## Output 100

## Input Same question, `O=C(Nc1ccccc1)ON=C1CCCCC1` this time
## Output 68

## Input Same question, COC(=O)Nc1nc2ccc(C(C)(O)c3cccs3)cc2[nH]1 (centres undefined) this time
## Output 95

## Input Same question, `CCN(CC)C(=O)CCCC1CCCCC1` this time
## Output 20

## Input Same question, CC12CCC(O)CC1=CCC1C2CCC2(C)c3nc(C#N)c(=N)n(O)c3CC12 (centres undefined) this time
## Output 93

## Input Same question, `Cc1nc(C)c(C(=O)NNC(=O)C[N+](C)(C)C)cc1C(=O)NNC(=O)C[N+](C)(C)C` this time
## Output -29

## Input Same question, C1=NC(N(Cc2ccccc2)Cc2ccccc2)N(Cc2ccccc2)N1 (centres undefined) this time
## Output 94
